# ASSAY TARGET: MCR-1 (Homo sapiens, UniProt Q01726)
# Construct: expressed in transfected cells; host or cells: HEK 293
# Sequence (Q01726 whole entry): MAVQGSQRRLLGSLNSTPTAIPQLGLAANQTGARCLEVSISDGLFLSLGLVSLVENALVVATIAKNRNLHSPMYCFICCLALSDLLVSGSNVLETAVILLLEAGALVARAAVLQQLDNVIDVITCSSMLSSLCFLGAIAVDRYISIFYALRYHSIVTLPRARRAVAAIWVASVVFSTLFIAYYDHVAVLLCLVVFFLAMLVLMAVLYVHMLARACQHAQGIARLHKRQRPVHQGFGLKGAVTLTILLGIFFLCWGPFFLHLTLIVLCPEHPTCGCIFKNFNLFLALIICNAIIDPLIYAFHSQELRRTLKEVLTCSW
# METHOD DESCRIPTION: Melanocortin receptor binding assay, competition with 125I-HP 467, HEK 293 cells expressing hMCR-1
# PARTICULARS: competition with 125I-HP 467, HEK 293 cells expressing MCR-1; read-out: MC-1 IC50
READOUT TYPE: IC50 (nM)

1 = CCNc1ccc(C2C(CNCCc3ccccc3)c3ccccc3CN2CCCCC(CN)NCC)cc1 (stereo not shown)
2 = CNC(C)CNC(CN)CCCN1Cc2ccccc2C(CN)C1c1ccc(-c2ccccc2)cc1 (mixture of isomers)
3 = CCCCNc1ccc(C2C(CNC3CCCCC3)c3ccccc3CN2CCCCC(CN)N2CCCC2)cc1 (stereo not shown)
4 = NCC(CCCCN1Cc2ccccc2C(CN)C1c1ccc(-c2ccccc2)cc1)NCC1CCCCC1 (stereo not shown)
5 = CNC(CN)CCCCN1Cc2ccccc2C(CNC2CCCCC2)C1c1ccc(NCCc2ccccc2)cc1 (stereo not shown)
Prompt: Hey, can you sort those compounds up there by IC50, smallest first? In plain terms: list the labels in the order you were asked to.
Completion: 3, 1, 4, 2, 5

a = CNC(C)CNC(CN)CCCN1Cc2ccccc2C(CNC2CCCCC2)C1c1ccc(-c2ccccc2)cc1 (stereo not shown)
b = CNC(CN)CCCCN1Cc2ccccc2C(CNC2CCCCC2)C1c1ccc(NCC(C)C)cc1 (stereo not shown)
Prompt: Hey, which is lower on measured IC50, a or b ? Kindly state the label of the option you pick.
Completion: b

I = CCNc1ccc(C2C(CN)c3ccccc3CN2CCCCC(CN)NCCc2ccc(OC)cc2)cc1 (stereo not shown)
II = CCCCNc1ccc(C2C(CN)c3ccccc3CN2CCCC(CN)NCc2ccc(OC)cc2)cc1 (stereo not shown)
Prompt: Hey, which is lower on measured IC50, I or II ? Kindly state the label of the option you pick.
Completion: II

---

# ASSAY TARGET: MCR-1 (Homo sapiens)
# Construct: expressed in transfected cells; host or cells: HEK 293
# METHOD DESCRIPTION: Melanocortin receptor binding assay, competition with 125I-HP 467, HEK 293 cells expressing hMCR-1
# PARTICULARS: inhibition of binding of 125I-HP 467, HEK 293 cells expressing MCR-1; TRG 2414 library; read-out: MC-1 IC50
pIC50: −log10 of the molar value.
READOUT TYPE: pIC50

Some entries whose results are on file:
{"COMPOUND": "CCCOc1ccc(C2C(CNCc3ccccc3C(F)(F)F)c3ccccc3CN2CCCCC(N)CN)cc1 (stereo not shown) [TRG 2414-161]", "ASSAY TARGET": "MCR-1 (Homo sapiens)", "pIC50": 5.10}
{"COMPOUND": "COc1ccc(CNCC2c3ccccc3CN(CCCCC(CN)NCC(C)c3ccc(CC(C)C)cc3)C2c2ccc(Cl)cc2Cl)cc1 (stereo not shown) [TRG 2414-24]", "ASSAY TARGET": "MCR-1 (Homo sapiens)", "pIC50": 4.59}
{"COMPOUND": "CCOc1ccccc1CNCC1c2ccccc2CN(CCCCC(CN)NCc2ccccc2)C1c1cc(C(F)(F)F)cc(C(F)(F)F)c1 (stereo not shown) [TRG 2414-47]", "ASSAY TARGET": "MCR-1 (Homo sapiens)", "pIC50": 5.11}
{"COMPOUND": "COc1ccc(CNCC2c3ccccc3CN(CCCCC(N)CN)C2c2ccc(Cl)cc2Cl)cc1 (stereo not shown) [TRG 2414-21]", "ASSAY TARGET": "MCR-1 (Homo sapiens)", "pIC50": 5.95}
{"COMPOUND": "CCCOc1ccc(C2C(CNCc3ccccc3C(F)(F)F)c3ccccc3CN2CCCCC(CN)NCc2ccccc2)cc1 (stereo not shown) [TRG 2414-163]", "ASSAY TARGET": "MCR-1 (Homo sapiens)", "pIC50": 5.56}

A = NCC(CCCCN1Cc2ccccc2C(CNCCc2cccc(Cl)c2)C1c1ccc(Cl)cc1Cl)NCCc1ccccc1 (stereo not shown) [TRG 2414-14]
B = CCCOc1ccc(C2C(CNCc3ccc(OC)cc3)c3ccccc3CN2CCCCC(CN)NCc2ccccc2)cc1 (stereo not shown) [TRG 2414-183]
Prompt: Hey, which is lower on measured pIC50, A or B ? Kindly state the label of the option you pick.
Completion: A

---

# ASSAY TARGET: MCR-4 (Homo sapiens)
# Construct: expressed in transfected cells; host or cells: HEK 293
# Sequence (P32245 whole entry): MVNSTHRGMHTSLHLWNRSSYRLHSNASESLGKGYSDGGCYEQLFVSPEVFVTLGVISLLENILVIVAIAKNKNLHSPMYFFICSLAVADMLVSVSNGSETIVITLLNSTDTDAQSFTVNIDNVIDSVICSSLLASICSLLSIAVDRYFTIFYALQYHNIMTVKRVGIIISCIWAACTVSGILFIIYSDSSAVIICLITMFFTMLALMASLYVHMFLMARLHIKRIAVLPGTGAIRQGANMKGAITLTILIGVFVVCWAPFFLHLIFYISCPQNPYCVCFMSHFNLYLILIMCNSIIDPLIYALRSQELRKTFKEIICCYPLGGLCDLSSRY
# METHOD DESCRIPTION: Melanocortin receptor binding assay, competition with 125I-HP 467, HEK 293 cells expressing hMCR-4
# PARTICULARS: inhibition of binding of 125I-HP 467, HEK 293 cells expressing MCR-4; read-out: MC-4 IC50
READOUT TYPE: IC50 (µM)

Some entries whose results are on file:
{"COMPOUND": "CCCCCNc1ccc(C2C(CNCCc3ccccc3)c3ccccc3CN2CCCC(CN)NC)cc1 (stereo not shown)", "READOUT TYPE": "IC50", "NUMBER": 1.48}
{"COMPOUND": "COc1ccc(CCNCC2c3ccccc3CN(CCCCC(CN)NCc3ccc(Br)cc3)C2c2cc(C(F)(F)F)cc(C(F)(F)F)c2)cc1OC (stereo not shown)", "READOUT TYPE": "IC50", "NUMBER": 1.35}
{"COMPOUND": "CCNc1ccc(C2C(CNCCc3ccccc3)c3ccccc3CN2CCCC(CN)NCCCCCNC(C)C)cc1 (stereo not shown)", "READOUT TYPE": "IC50", "NUMBER": 1.5}
{"COMPOUND": "CCNc1ccc(C2C(CNCCc3ccccc3)c3ccccc3CN2CCCC[C@@H](CN)NCCCCOc2ccccc2)cc1 (stereo partly shown)", "READOUT TYPE": "IC50", "NUMBER": 3.52}
{"COMPOUND": "NCC(CCCCN1Cc2ccccc2C(CNCCc2ccc(Oc3ccccc3)cc2)C1c1cc(C(F)(F)F)cc(C(F)(F)F)c1)NCc1ccccc1 (stereo not shown)", "READOUT TYPE": "IC50", "NUMBER": 12.9}

1 = CCNc1ccc(C2C(CN)c3ccccc3CN2CCCC(CN)NCCc2ccccc2)cc1 (stereo not shown)
2 = CCNC(CN)CCCCN1Cc2ccccc2C(CN)C1c1ccc(OCC)cc1 (stereo not shown)
Prompt: Recorded IC50 values differ for 1 and 2 ; which one is higher? Kindly state the label of the option you pick.
Completion: 2
(2: 3.99 µM, 1: 1.43 µM)

---

# ASSAY TARGET: MCR-1 (Homo sapiens)
# Construct: expressed in transfected cells; host or cells: HEK 293
# METHOD DESCRIPTION: Melanocortin receptor binding assay, competition with 125I-HP 467, HEK 293 cells expressing hMCR-1
# PARTICULARS: displacement of 125I-HP 467 at 10 μM isoquinoline compound; first of duplicate
READOUT TYPE: % Disp. MC-1 10 μM (%)

Some entries whose results are on file:
{"MOLECULE": "NCCN1Cc2ccccc2C(CNC2CCCCC2)C1c1cccc(Oc2ccccc2)c1 (stereo not drawn) [TRG 2405-50]", "READOUT TYPE": "% Disp. MC-1 10 μM", "NUMBER": 61.9}
{"MOLECULE": "CNC(CN)CN1Cc2ccccc2C(CNC2CCCCC2)C1c1ccc([N+](=O)[O-])o1 (stereo not drawn) [TRG 2405-170]", "READOUT TYPE": "% Disp. MC-1 10 μM", "NUMBER": 68.4}
{"MOLECULE": "CNC(CN)CN1Cc2ccccc2C(CNC2CCCCC2)C1c1ccncc1 (stereo not drawn) [TRG 2405-164]", "READOUT TYPE": "% Disp. MC-1 10 μM", "NUMBER": 24.7}

a = CNC(CN)CN1Cc2ccccc2C(CNC2CCCCC2)C1c1ccc(F)c(Br)c1 (stereo not drawn) [TRG 2405-126]
b = NCCN1Cc2ccccc2C(CNC2CCCCC2)C1c1ccc([N+](=O)[O-])cc1 (stereo not drawn) [TRG 2405-71]
Prompt: Hey, which is lower on measured % Disp. MC-1 10 μM, a or b ? Kindly state the label of the option you pick.
Completion: b
(b: 28.2%, a: 52.4%)

P = NCCN1Cc2ccccc2C(CNC2CCCCC2)C1c1cccc(C(F)(F)F)c1 (stereo not drawn) [TRG 2405-35]
Q = NCCN1Cc2ccccc2C(CNC2CCCCC2)C1c1cccc(F)c1F (stereo not drawn) [TRG 2405-9]
Prompt: Recorded % Disp. MC-1 10 μM values differ for P and Q ; which one is higher? Kindly state the label of the option you pick.
Completion: P
(P: 54.6%, Q: 36.4%)

---

# ASSAY TARGET: MCR-1 (Homo sapiens, UniProt Q01726)
# Construct: expressed in transfected cells; host or cells: HEK 293
# METHOD DESCRIPTION: Melanocortin receptor binding assay, competition with 125I-HP 467, HEK 293 cells expressing hMCR-1
# PARTICULARS: TRG 2406 and TRG 2407 libraries; inhibition of binding of 125I-HP 467; read-out: MC-1 IC50
# Experimental: All cell culture media and reagents were obtained from GibcoBRL (Gaithersburg Md.), except for COSMIC CALF SERUM (HyClone; Logan Utah). Cells were suspended in PBS, 10% COSMIC CALF SERUM and 1 mM CaCl2. […] To assay isoquinoline compounds, binding assays were performed in duplicate in a 96 well format. […] Cells were harvested on GF/B filter plates as described above and counted.
READOUT TYPE: IC50 (µM)

Some entries whose results are on file:
{"COMPOUND": "CNC(CN)CCCCN1Cc2ccccc2C(CNN2CCCCC2)C1c1ccc(Cl)cc1Cl (mixture of isomers) [TRG 2407-34]", "NUMBER": 3.97}
{"COMPOUND": "CNC(CN)CCCCN1Cc2ccccc2C(CNCc2ccccc2O)C1c1cccc(Oc2ccc(OC)cc2)c1 (stereo not shown) [TRG 2406-7]", "NUMBER": 1.23}
{"COMPOUND": "CNC(CN)CCCCN1Cc2ccccc2C(CNCc2ccc(C(F)(F)F)cc2)C1c1ccc(Cl)cc1Cl (stereo not shown) [TRG 2407-20]", "NUMBER": 3.78}

P = CNC(CN)CCCCN1Cc2ccccc2C(CNCc2ccccc2)C1c1ccc(Cl)cc1Cl (stereo not shown) [TRG 2407-10]
Q = CCNc1ccc(C2C(CNCc3ccccc3C(F)(F)F)c3ccccc3CN2CCCCC(CN)NC)cc1 (stereo not shown) [TRG 2407-53]
Prompt: Hey, which is lower on measured IC50, P or Q ? Kindly state the label of the option you pick.
Completion: Q

P = CNC(CN)CCCCN1Cc2ccccc2C(CNCc2cccc(C(F)(F)F)c2)C1c1ccc(Cl)cc1Cl (stereo not shown) [TRG 2407-17]
Q = CNC(CN)CCCCN1Cc2ccccc2C(CNCc2ccc(Cl)cc2)C1c1ccc(Cl)cc1Cl (stereo not shown) [TRG 2407-18]
Prompt: Hey, which is lower on measured IC50, P or Q ? Kindly state the label of the option you pick.
Completion: Q
